system: Miltenberger Antibody Positive Panel; assay: Reactivity of modified RBCs against the Miltenberger Antibody Positive Panel; format: cell-based, human; set-up: key: 0 or ‘−’ no agglutination; 0 or ‘−’ no agglutination; 1+ or 3=very weak agglutination; 1+ or 3=very weak agglutination; 2+ or 5=weak agglutination; 2+ or 5=weak agglutination; 3+ or 8=moderate strong agglutination; 3+ or 8=moderate strong agglutination; 4+ or 10/12=strong agglutination; 4+ or 10/12=strong agglutination; 4+ or 10/12=strong agglutination; conditions: Table 9; construct 100 μg/ml
No end group written: not given here.
QUANTITY NAME: score vs panel 11 Mur
Just the number.

M17: DOPE peptide-lipid construct: Mur peptide TYPAHTANEV, leader c, spacer CMG(2) (TYPAHTANEVC; also: DOPE peptide-lipid construct via leader Cys, spacer CMG(2)) ... 0

Entry under review: M18: DOPE peptide-lipid construct: Mur peptide PAHTANEV, leader c, spacer CMG(2) (PAHTANEVC; also: DOPE peptide-lipid construct via leader Cys, spacer CMG(2)) . Reported score vs panel 11 Mur?
0

Source listed as patent US10919941B2.
